# Tested on: TRKB;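 also: KINOMEscan kinase panel screen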
# Recorded Conditions: concentration: 1 μM, replicates: in singlicate; n = 1
Exercise: state measured %Inh for each of the molecules provided.
Value expressed in %; do not type the unit.

The molecule NS(=O)(=O)c1cccc(N/C=C2\C(=O)Nc3ccc(S(=O)(=O)Cc4c(Cl)cccc4Cl)cc32)c1 showed %Inh equal to 0

The molecule Cc1ccc(NC(=O)c2ccc(Cl)cc2)cc1-c1ccc(C(=O)Nc2ccncc2)cc1 showed %Inh equal to 0

The molecule CNc1nc(-c2ccc3c(N)n[nH]c3c2)cc(N2C[C@@H](C(=O)NC3CCCCC3)OC[C@H]2C)n1 showed %Inh equal to 0

The molecule COc1cccc(NC(=O)Nc2ccc(C)c(-c3ccc(C(=O)Nc4ccncc4)cc3)c2)c1 showed %Inh equal to 0

The molecule CCCCc1nn2ncccc2c1-c1ccnc(NC2CC2)n1 showed %Inh equal to 6

The molecule CS(=O)(=O)CCNCc1nc(-c2ccc3ncnc(Nc4ccc(OCc5ccccc5)c(Cl)c4)c3c2)cs1.Cl showed %Inh equal to 41

The molecule Cc1c(Cn2c3ccccc3n3c(=O)cc(N4CCOCC4)nc23)cccc1C(F)(F)F showed %Inh equal to 0

The molecule CSc1ccc(-c2nc3n(c2-c2ccncc2)CCC3)cc1 showed %Inh equal to 4

The molecule Cc1ccc(NC(=O)Nc2ccc(Cl)c(C(F)(F)F)c2)cc1-c1ccc(C(=O)Nc2ccncc2)cc1 showed %Inh equal to 0

The molecule COc1ccc(Nc2nccc(N3CCC(NC(=O)C(C)c4ccc(Cl)cc4)C3)n2)cc1 (stereo not drawn) showed %Inh equal to 0

The molecule Cc1ccc(NC(=O)Nc2ccc(Cl)cc2)cc1-c1ccc(C(=O)Nc2ccncc2)cc1 showed %Inh equal to 0

The molecule COc1ccc(Nc2nccc(N3CCC(NC(=O)C(C)c4ccc(Cl)cc4)CC3)n2)cc1 (stereo not drawn) showed %Inh equal to 0
